The measurements presented in this section are drawn from patent US10179770B2.

# Test system: A-375
# Assay Text: EC50 determination in cancer cell lines
# Assay type: cell-based, human
# Experimental Parameters: 72 h
Quantity Name: EC50 (nM)
Numbers only, in nM.

Give its EC50 value. Item: CN(C)CCCNc1cc(-c2ccccc2)nc2ccccc12 [XLI-1]
2000

====

# System: patient derived acute myeloid leukemia (AML) cell lines
# Assay Text: Cell growth inhibition assay, patient derived AML cells
# Type: cell-based, human
# Experimental Parameters: Homo sapiens, 48 h, Patient 13, subtype MLL
Where a name gives a salt, the structure may show the parent alone.
Quantity Name: EC50

| Compound | Study System | EC50 |
| --- | --- | --- |
| CC(C)(C)NC1CCN(c2cc(-c3ccc(Cl)c(Cl)c3)nc3ccccc23)CC1 [XIV-8, dihydrochloride] | patient derived acute myeloid leukemia (AML) cell lines | > 40 µM |
| CCN(CC)C1CCN(C(C)c2cc(-c3ccccc3)nc3ccccc23)CC1.Cl.Cl (centres unmarked) [XIX-3, dihydrochloride] | patient derived acute myeloid leukemia (AML) cell lines | 16 µM |
| CC(C)(C)NC1CCN(c2cc(-c3ccc(Cl)cc3)nc3ccccc23)CC1.Cl.Cl [XII-4, dihydrochloride] | patient derived acute myeloid leukemia (AML) cell lines | 27 µM |
| Cc1ccc(-c2cc(N3CCC(NC(C)(C)C)CC3)c3ccccc3n2)cc1.Cl.Cl [XIII-8, dihydrochloride] | patient derived acute myeloid leukemia (AML) cell lines | 25 µM |

Short answer please: EC50, patient derived acute myeloid leukemia (AML) cell lines, entry CCN(CC)C1CCN(C(C)c2cc(-c3ccc4ccccc4c3)nc3ccccc23)CC1.Cl.Cl (centres unmarked) [XXIV-3, dihydrochloride]
8 µM

====

# Test system: patient derived acute myeloid leukemia (AML) cell lines
# Assay Text: Cell growth inhibition assay, patient derived AML cells
# Type: cell-based, human
# Experimental Parameters: Homo sapiens, 48 h, Patient 10, subtype Inv 3
Where a name gives a salt, the structure may show the parent alone.
Task for the reader: assign each of the following molecules its reported EC50.
One number for each entry, in µM.

Some entries whose results are on file:
| Molecule | Quantity Unit | Observed |
| --- | --- | --- |
| CCN(CC)C1CCN(C(C)c2cc(-c3ccccc3)nc3ccccc23)CC1.Cl.Cl (centres unmarked) [XIX-3, dihydrochloride] | µM | 28 |
| CCN(CC)C1CCN(C(C)c2cc(-c3ccc4ccccc4c3)nc3ccccc23)CC1.Cl.Cl (centres unmarked) [XXIV-3, dihydrochloride] | µM | 13 |
| CC(C)(C)NC1CCN(c2cc(-c3ccc(Cl)cc3)nc3ccccc23)CC1.Cl.Cl [XII-4, dihydrochloride] | µM | 25 |
| CC(C)(C)NC1CCN(c2cc(-c3ccc(Cl)c(Cl)c3)nc3ccccc23)CC1 [XIV-8, dihydrochloride] | µM | 20 |

Give its EC50 value. Item: Cc1ccc(-c2cc(N3CCC(NC(C)(C)C)CC3)c3ccccc3n2)cc1.Cl.Cl [XIII-8, dihydrochloride]
35

====

Task for the reader: assign each of the following molecules its reported pEC50.
# Tested on: MOLM-14
# Assay Text: EC50 determination in cancer cell lines
# Format: cell-based
# Experimental Parameters: Homo sapiens, 72 h
Counter-ions that a name gives are not always drawn.
One number for each entry, as −log10 of the molar value.

| Molecule | Observed |
| --- | --- |
| CN(C)CCCNc1cc(-c2ccccc2)nc2ccccc12 [XL-2, trifluoroacetate salt] | 5.52 |
| Cc1ccc(-c2cc(N3CCC(NC(C)(C)C)CC3)c3ccccc3n2)cc1.Cl.Cl [XIII-8, dihydrochloride] | 5.52 |

Record pEC50 per entry; entries follow.
1. CCN(CC)C1CCN(c2cc(-c3ccccc3)nc3cc(Cl)ccc23)CC1
2. COc1ccc(-c2cc(N3CCC(NC(C)(C)C)CC3)c3ccccc3n2)cc1 [XV-8, dihydrochloride]
3. CCN(CC)C1CCN(Cc2cc(-c3ccccc3)nc3cc(Cl)ccc23)CC1 [XVII-6, dihydrochloride]
4. CCN(CC)C1CCN(c2cc(-c3ccc4ccccc4c3)nc3ccccc23)CC1
5. CN(C)CCCNCc1cc(-c2ccccc2)nc2cc(Cl)ccc12
6. CCN(CC)C1CCN(C(C)c2cc(-c3ccccc3)nc3cc(Cl)ccc23)CC1 (centres unmarked) [XVI-4, dihydrochloride]

[5.30, 5.52, 5.30, 5.30, 5.22, 5.22]

Record pEC50 per entry; entries follow.
1. Clc1ccc2c(NC3CCN(Cc4ccccc4)CC3)cc(-c3ccccc3)nc2c1 [XXVIII-2, hydrochloride salt]
2. CC(c1cc(-c2ccccc2)nc2ccccc12)N1CCC(NC(C)(C)C)CC1 (centres unmarked) [XXIII-2, dihydrochloride]
3. CC(C)(C)NC1CCN(c2cc(-c3ccc(Cl)cc3)nc3ccccc23)CC1.Cl.Cl [XII-4, dihydrochloride]
4. CN(C)CCCNc1cc(-c2ccc3ccccc3c2)nc2ccccc12 [XLII-2, hydrochloride salt]
5. Clc1ccc2c(CNC3CCN(Cc4ccccc4)CC3)cc(-c3ccccc3)nc2c1 [XXXIII-2, hydrochloride salt]
6. CC(C)(C)NC1CCN(c2cc(-c3ccc(Cl)c(Cl)c3)nc3ccccc23)CC1 [XIV-8, dihydrochloride]
7. CCN(CC)C1CCN(C(C)c2cc(-c3ccc4ccccc4c3)nc3ccccc23)CC1.Cl.Cl (centres unmarked) [XXIV-3, dihydrochloride]

5.00
5.22
5.52
5.40
5.05
5.30
5.40

Record pEC50 per entry; entries follow.
1. CCN(CC)C1CCN(C(C)c2cc(-c3ccccc3)nc3ccccc23)CC1.Cl.Cl (centres unmarked) [XIX-3, dihydrochloride]
2. CCN(CC)C1CCN(c2cc(-c3ccc(-c4ccccc4)cc3)nc3ccccc23)CC1 [IX-2, dihydrochloride]

1: 4.96; 2: 5.40

====

# System: patient derived acute myeloid leukemia (AML) cell lines
# Assay Text: Cell growth inhibition assay, patient derived AML cells
# Format: cell-based, human
# Experimental Parameters: Patient 10, subtype Inv 3; 48 h
Quantity Name: EC50 (µM)
Give bare numbers, in µM.

Give its EC50 value. Item: Nc1ccn([C@@H]2O[C@H](CO)[C@@H](O)[C@@H]2O)c(=O)n1 [AraC, cytosine arabinoside, reference compound]
36

====

# Tested on: A-375
# Assay Text: EC50 determination in cancer cell lines
# Type: cell-based, human
# Experimental Parameters: Homo sapiens, A-375, 72 h
Counter-ions that a name gives are not always drawn.
Quantity Name: pEC50
Numbers only, as −log10 of the molar value.

| Compound | Study System | pEC50 |
| --- | --- | --- |
| COc1ccc(-c2cc(N3CCC(NC(C)(C)C)CC3)c3ccccc3n2)cc1 [XV-8, dihydrochloride] | A-375 | 5.00 |
| CC(C)(C)NC1CCN(c2cc(-c3ccc(Cl)c(Cl)c3)nc3ccccc23)CC1 [XIV-8, dihydrochloride] | A-375 | 5.22 |
| CCN(CC)C1CCN(c2cc(-c3ccc(-c4ccccc4)cc3)nc3ccccc23)CC1 [IX-2, dihydrochloride] | A-375 | 5.52 |
| CC(C)(C)NC1CCN(c2cc(-c3ccc(Cl)cc3)nc3ccccc23)CC1.Cl.Cl [XII-4, dihydrochloride] | A-375 | 5.30 |
| CCN(CC)C1CCN(C(C)c2cc(-c3ccccc3)nc3cc(Cl)ccc23)CC1 (stereo not shown) [XVI-4, dihydrochloride] | A-375 | 5.40 |
| CCN(CC)C1CCN(C(C)c2cc(-c3ccccc3)nc3ccccc23)CC1.Cl.Cl (stereo not shown) [XIX-3, dihydrochloride] | A-375 | 5.05 |
| CN(C)CCCNCc1cc(-c2ccccc2)nc2cc(Cl)ccc12 | A-375 | 5.40 |
| CCN(CC)C1CCN(c2cc(-c3ccc4ccccc4c3)nc3ccccc23)CC1 | A-375 | 5.40 |
| CCN(CC)C1CCN(Cc2cc(-c3ccccc3)nc3cc(Cl)ccc23)CC1 [XVII-6, dihydrochloride] | A-375 | 5.52 |
| CCN(CC)C1CCN(C(C)c2cc(-c3ccc4ccccc4c3)nc3ccccc23)CC1.Cl.Cl (stereo not shown) [XXIV-3, dihydrochloride] | A-375 | 5.52 |

Record pEC50 per entry; entries follow.
1. Clc1ccc2c(CNC3CCN(Cc4ccccc4)CC3)cc(-c3ccccc3)nc2c1 [XXXIII-2, hydrochloride salt]
2. CCN(CC)C1CCN(c2cc(-c3ccccc3)nc3cc(Cl)ccc23)CC1

[5.05, 5.52]

Record pEC50 per entry; entries follow.
1. CN(C)CCCNc1cc(-c2ccccc2)nc2ccccc12 [XL-2, trifluoroacetate salt]
2. Clc1ccc2c(NC3CCN(Cc4ccccc4)CC3)cc(-c3ccccc3)nc2c1 [XXVIII-2, hydrochloride salt]
3. Cc1ccc(-c2cc(N3CCC(NC(C)(C)C)CC3)c3ccccc3n2)cc1.Cl.Cl [XIII-8, dihydrochloride]
4. CN(C)CCCNc1cc(-c2ccc3ccccc3c2)nc2ccccc12 [XLII-2, hydrochloride salt]

5.52
5.05
5.22
5.52
